- target.entity: NLRP3 (Homo sapiens)
- experiment: THP-1 cells pyroptosis assay (LPS + nigericin, resazurin readout)
- Format: cell-based
- Design: Seed THP-1 cells (25,000 cells/well) containing 1.0 μg/ml LPS in 40 μl of RPMI medium; host or cells: THP-1 cells
- experimental.setup: NLRP3 inhibitory activity, 1.0 μg/ml LPS, 5 μM nigericin
Counter-ions that a name gives are not always drawn.
quantity: IC50

`CNCc1cc(S(=O)(=O)NC(=O)Nc2c(-c3ccnc(OC)c3)ccc3c2CCC3)nn1C1CC1` yielded IC50 of 40 to 160 nM

Lab note: measured IC50 of CN1CC(N(C)Cc2cc(S(=O)(=O)NC(=O)Nc3c4c(cc5c3CCC5)CCC4)nn2C)C1 [Example 8, Sodium Salt] was 160 to 640 nM

Lab note: measured IC50 of `CC(C)n1nc(S(=O)(=O)NC(=O)Nc2c3c(cc4c2CCC4)CCC3)cc1CN(C)C` was < 40 nM

---

Field: pIC50. Provide a value for each of the compounds that follow.
- target.entity: NLRP3 (Homo sapiens, UniProt Q96P20)
- Sequence (Q96P20 whole entry): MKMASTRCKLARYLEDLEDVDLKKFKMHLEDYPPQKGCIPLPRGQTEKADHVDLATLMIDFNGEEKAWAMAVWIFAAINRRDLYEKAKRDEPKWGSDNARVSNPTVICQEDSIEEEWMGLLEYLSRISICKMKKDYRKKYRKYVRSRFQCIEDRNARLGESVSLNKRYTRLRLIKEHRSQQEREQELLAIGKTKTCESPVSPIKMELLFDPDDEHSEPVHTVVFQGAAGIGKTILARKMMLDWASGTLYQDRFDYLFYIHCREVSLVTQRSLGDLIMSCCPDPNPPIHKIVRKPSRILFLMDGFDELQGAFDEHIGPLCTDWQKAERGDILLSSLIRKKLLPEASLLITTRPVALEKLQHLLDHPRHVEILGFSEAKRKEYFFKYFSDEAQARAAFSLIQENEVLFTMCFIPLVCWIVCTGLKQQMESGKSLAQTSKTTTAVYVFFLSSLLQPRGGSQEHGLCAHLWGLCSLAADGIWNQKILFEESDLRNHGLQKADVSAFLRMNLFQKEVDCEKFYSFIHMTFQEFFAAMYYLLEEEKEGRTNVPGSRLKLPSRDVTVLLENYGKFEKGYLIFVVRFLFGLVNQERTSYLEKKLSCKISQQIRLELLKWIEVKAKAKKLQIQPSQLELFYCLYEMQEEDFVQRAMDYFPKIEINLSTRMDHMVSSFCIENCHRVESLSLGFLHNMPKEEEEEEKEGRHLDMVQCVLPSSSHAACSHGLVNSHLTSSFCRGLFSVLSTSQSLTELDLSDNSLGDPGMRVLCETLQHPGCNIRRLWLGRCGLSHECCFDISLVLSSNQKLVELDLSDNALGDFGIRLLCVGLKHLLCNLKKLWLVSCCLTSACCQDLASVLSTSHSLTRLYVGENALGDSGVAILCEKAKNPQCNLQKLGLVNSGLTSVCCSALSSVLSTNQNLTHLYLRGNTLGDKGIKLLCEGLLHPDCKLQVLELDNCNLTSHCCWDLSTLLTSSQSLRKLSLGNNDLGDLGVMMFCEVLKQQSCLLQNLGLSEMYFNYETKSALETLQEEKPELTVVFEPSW
- experiment: Human whole blood IL1β release assay (LPS + nigericin, AlphaLisa IL-1β)
- Type: cell-based
- Parameters: Human whole blood in Li-heparin tubes was obtained from healthy donors from a volunteer donor panel; from tissue; host or cells: human whole blood from healthy donors
- experimental.setup: NLRP3 inhibitory activity, 1 μg/ml LPS, 10 μM nigericin, IL-1β release, read-out: HWB IC50
pIC50: −log10 of the molar value. Where a name gives a salt, the structure may show the parent alone.

Query CC(C)n1nc(S(=O)(=O)NC(=O)Nc2c3c(cc4c2CCC4)CCC3)cc1CN(C)CCF [Example 57, Sodium Salt] yields pIC50 of 5.49 to 5.80

What the record says about CC(C)n1nc(S(=O)(=O)NC(=O)Nc2c3c(cc4c2CCC4)CCC3)cc1C1CCCN1C (stereo not drawn) [Example 186] : pIC50 is 6.10 to 6.40

For record CCC(c1cc(S(=O)(=O)NC(=O)Nc2c(C(C)C)cc(Cl)cc2C(C)C)nn1C)N(C)C (stereo not drawn) [Example 64] the listed pIC50 is 5.80 to 6.10

// CNCc1cc(S(=O)(=O)NC(=O)Nc2c3c(cc4c2CCC4)CCC3)nn1C [Example 67] : pIC50 value = 6.10 to 6.40

Memo: CCC(c1cc(S(=O)(=O)NC(=O)Nc2c(-c3ccnc(OC)c3)ccc3c2CCC3)nn1C(C)C)N(C)C (stereo not drawn) [Example 180] , reported pIC50: > 6.40

The compound listed as CC(C)c1cc(F)cc(-c2ccnc(C#N)c2)c1NC(=O)NS(=O)(=O)c1cc(CN(C)C)n(C)n1 [Example 36] shows pIC50 equal to > 6.40

Record summary for CCC(c1cc(S(=O)(=O)NC(=O)Nc2c3c(cc4c2CCC4)CCC3)nn1C)N(C)C (stereo not drawn) [Example 74] : reported pIC50 = > 6.40

Noted for CNCc1cc(S(=O)(=O)NC(=O)Nc2c3c(cc4c2CCC4)CCC3)nn1C1CC1 [Example 183] : its pIC50 reads 6.10 to 6.40

The value of pIC50 measured for the compound CC(C)c1cc(F)cc(C(C)C)c1NC(=O)NS(=O)(=O)c1cc(CN2CCC2)n(C)n1 [Example 88, Sodium Salt] turned out to be > 6.40

Source: patent US11542255B2
